# study_target: BACE1 (Homo sapiens, UniProt P56817)
# Sequence (P56817 46-501): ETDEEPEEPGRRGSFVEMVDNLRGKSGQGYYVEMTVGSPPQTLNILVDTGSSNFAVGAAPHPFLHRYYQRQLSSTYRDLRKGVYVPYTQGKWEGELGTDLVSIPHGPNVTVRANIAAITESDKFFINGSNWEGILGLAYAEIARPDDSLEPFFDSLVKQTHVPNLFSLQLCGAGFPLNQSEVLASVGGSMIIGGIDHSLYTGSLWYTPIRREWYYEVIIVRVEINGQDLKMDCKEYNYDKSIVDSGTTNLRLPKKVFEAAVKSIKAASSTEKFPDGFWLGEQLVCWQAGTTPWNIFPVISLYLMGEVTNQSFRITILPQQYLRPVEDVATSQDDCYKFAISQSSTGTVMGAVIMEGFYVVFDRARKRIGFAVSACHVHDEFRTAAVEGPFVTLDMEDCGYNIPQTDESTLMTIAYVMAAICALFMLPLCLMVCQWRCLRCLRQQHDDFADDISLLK
# experimental_details: Cellular Abeta-lowering assay
# cond: HEK293 cells stably transfected with human APP wt (APP695), Aβ40 ELISA of supernatant after 18-20 hrs
pIC50: −log10 of the molar value. Counter-ions that a name gives are not always drawn.
observable: pIC50

Examples with answers:
Cc1cc(C(=O)Nc2cccc(C3(C)COCC(N)=N3)c2)c(C)o1 (racemic) ... 7.62
C[C@@]1(c2cc(NC(=O)c3ccc(Cl)cn3)ccc2F)CO[C@H](c2ccccc2)C(N)=N1 ... 7.64

[P] C[C@@]1(c2cc(NC(=O)c3ncccc3F)ccc2F)COCC(N)=N1
[Q] C[C@@]1(c2cc(NC(=O)c3ncc(C(F)(F)F)cc3Cl)ccc2F)COCC(N)=N1
[R] CC1(c2cccc(NC(=O)c3ccc(C#N)cn3)c2)COCC(N)=N1 (racemic) [Example 69, hydrochloride]
[S] CC(C)(F)C(=O)Nc1ccc(F)c([C@]2(C)COCC(N)=N2)c1 [Example 92, formate]
[T] CC1(c2cccc(NC(=O)c3ccc(OCc4ccccc4)cn3)c2)COCC(N)=N1 (racemic) [Example 66, hydrochloride]
## Task Please rank these molecules by pIC50 in descending order. List the labels, following the order given in the request.
## Result R, Q, P, S, T

* * *

# study_target: UniProt P56817
# experimental_details: Cellular Abeta-lowering assay
# cond: HEK293 cells stably transfected with human APP wt (APP695), Aβ40 ELISA of supernatant after 18-20 hrs
Structures can show the parent of a compound that is named as a salt.
observable: IC50 (µM)

Examples with answers:
CC1(c2cccc(NC(=O)c3ccc(Cl)cc3Cl)c2)COCC(N)=N1 (racemic) ... 0.57
Cc1nc(C(=O)Nc2cccc(C3(C)COCC(N)=N3)c2)co1 (racemic) ... 0.02
C[C@@]1(c2cc(NC(=O)c3ccc(Cl)cn3)ccc2F)CO[C@H](Cc2ccccc2)C(N)=N1 ... 0.019

[1] C[C@@]1(c2cc(NC(=O)c3ncco3)ccc2F)COCC(N)=N1
[2] CC1(c2cccc(NC(=O)c3ncc(Cl)cc3F)c2)COCC(N)=N1 (racemic) [Example 68, hydrochloride]
[3] C[C@@]1(c2cc(NC(=O)c3sccc3Cl)ccc2F)COCC(N)=N1
## Task Sort ascending by IC50. List the labels, following the order given in the request.
## Result 2, 1, 3
(2: 0.01 µM, 1: 0.7 µM, 3: 1.35 µM)

[a] CC1(c2cccc(NC(=O)c3ncc(C(F)(F)F)cc3Cl)c2)COCC(N)=N1 (racemic)
[b] C[C@@]1(c2cc(NC(=O)c3ccc(OC(F)F)cn3)ccc2F)COCC(N)=N1 [Example 73, hydrochloride]
## Task Decide: a or b , by lowest recorded IC50. Identify your pick by its label.
## Result b

* * *

# study_target: BACE1 (Homo sapiens)
# experimental_details: Cellular Abeta-lowering assay
# cond: HEK293 cells stably transfected with human APP wt (APP695), Aβ40 ELISA of supernatant after 18-20 hrs
pIC50: −log10 of the molar value. Counter-ions that a name gives are not always drawn.
observable: pIC50

Examples with answers:
C=CCCOc1ccc(C(=O)Nc2cccc(C3(C)COCC(N)=N3)c2)nc1 (racemic) ... 6.18
Cn1cc(Cl)c(C(=O)Nc2ccc(F)c([C@]3(C)COCC(N)=N3)c2)n1 ... 7.10

[A] CC1(c2cc(NC(=S)c3ccc(Cl)cc3)ccc2F)COCC(N)=N1 (racemic)
[B] C[C@@]1(c2cc(NC(=O)c3cnc(C(F)(F)F)cn3)ccc2F)COCC(N)=N1 [Example 81, formate]
[C] Cc1cc(Cl)cnc1C(=O)Nc1ccc(F)c([C@]2(C)COCC(N)=N2)c1
[D] C[C@@]1(c2cc(NC(=O)c3ncccc3OCC(F)(F)F)ccc2F)COCC(N)=N1
[E] CC(F)C(=O)Nc1ccc(F)c([C@]2(C)COCC(N)=N2)c1 (mixture of isomers) [Example 87, formate]
## Task Sort ascending by pIC50. List the labels, following the order given in the request.
## Result A, D, E, B, C

[1] Cc1nc(C(F)(F)F)c(C(=O)Nc2ccc(F)c([C@]3(C)COCC(N)=N3)c2)s1
[2] CC1(c2cccc(NC(=O)c3cccc(Cl)c3)c2)COCC(N)=N1 (racemic)
[3] C[C@@]1(c2cc(NC(=O)c3ccc(Cl)cn3)ccc2F)CO[C@@H](Cc2ccccc2)C(N)=N1 (racemic)
[4] Cc1cnc(C(=O)Nc2cccc(C3(C)COCC(N)=N3)c2)cn1 (racemic)
## Task Sort ascending by pIC50. List the labels, following the order given in the request.
## Result 2, 1, 4, 3

* * *

# study_target: BACE1 (Homo sapiens, UniProt P56817)
# experimental_details: Cellular Abeta-lowering assay
# cond: HEK293 cells stably transfected with human APP wt (APP695), Aβ40 ELISA of supernatant after 18-20 hrs
pIC50: −log10 of the molar value.
observable: pIC50

Examples with answers:
CC1(C)OCC(N)=N[C@]1(C)c1cc(NC(=O)c2ccc(OCC(F)(F)F)cn2)ccc1F ... 7.41
NC1=NC(c2cc(NC(=O)c3ccc(OCC(F)(F)F)cn3)ccc2F)(C2CC2)COC1 (racemic) ... 6.80

[1] CC1(C)OCC(N)=N[C@]1(C)c1cc(NC(=O)c2ccc(Cl)cn2)ccc1F
[2] Cc1nc(C(=O)Nc2ccc(F)c([C@]3(C)COCC(N)=N3)c2)co1
## Task Decide: 1 or 2 , by lowest recorded pIC50. Identify your pick by its label.
## Result 2
(2: 7.55, 1: 8.40)

* * *

# study_target: UniProt Q9Y5Z0
# Sequence (Q9Y5Z0 63-473 limits assumed): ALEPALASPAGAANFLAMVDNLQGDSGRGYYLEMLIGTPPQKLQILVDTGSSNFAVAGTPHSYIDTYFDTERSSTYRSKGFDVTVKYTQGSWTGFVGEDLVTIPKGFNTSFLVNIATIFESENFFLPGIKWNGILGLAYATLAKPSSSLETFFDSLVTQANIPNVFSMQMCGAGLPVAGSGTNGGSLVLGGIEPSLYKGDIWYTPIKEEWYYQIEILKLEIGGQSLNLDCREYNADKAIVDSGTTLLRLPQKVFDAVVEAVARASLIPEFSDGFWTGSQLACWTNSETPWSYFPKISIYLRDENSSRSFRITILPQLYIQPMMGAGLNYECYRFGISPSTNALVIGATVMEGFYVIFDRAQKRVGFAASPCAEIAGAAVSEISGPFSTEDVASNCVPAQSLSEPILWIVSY
Counter-ions that a name gives are not always drawn.
observable: Kd (nM)

CC1(c2cccc(NC(=O)c3cc4ccccn4n3)c2)COCC(N)=N1 (racemic) [Example 16] ... 513
CC1(c2cc(NC(=O)C3(C(F)(F)F)CC3)ccc2F)COCC(N)=N1 (racemic) [Example 57] ... 1800
CCCCc1ccc(C(=O)Nc2cccc(C3(C)COCC(N)=N3)c2)nc1 (racemic) [Example 32, hydrochloride] ... 20000

[P] CC1(c2cccc(NC(=O)c3ccc(OCC(F)F)cn3)c2)COCC(N)=N1 (racemic) [Example 62, hydrochloride]
[Q] Cn1cc(Cl)c(C(=O)Nc2ccc(F)c([C@]3(C)COCC(N)=N3)c2)n1 [Example 43]
## Task Which shows the larger Kd value: P or Q ? Identify your pick by its label.
## Result P

[P] CC(C)CC(=O)Nc1ccc(F)c([C@]2(C)COCC(N)=N2)c1 [Example 95, formate]
[Q] CC(C)(F)C(=O)Nc1ccc(F)c([C@]2(C)COCC(N)=N2)c1 [Example 92, formate]
## Task Decide: P or Q , by lowest recorded Kd. Identify your pick by its label.
## Result Q

* * *

Counter-ions that a name gives are not always drawn.
// Kd collected for BACE1 (Homo sapiens, UniProt P56817)
observable: Kd (nM)

Examples with answers:
CC1(c2cc(NC(=O)c3ccc(-c4ccco4)cn3)ccc2F)COCC(N)=N1 (racemic) [Example 76] ... 93
C[C@@]1(c2cc(NC(=O)c3ncoc3-c3ccccc3)ccc2F)COCC(N)=N1 [Example 45] ... 3940
C[C@@]1(c2cc(NC(=O)c3ncc(F)cc3F)ccc2F)COCC(N)=N1 [Example 41] ... 54
C[C@@]1(c2cc(NC(=O)c3coc(C(F)(F)F)c3)ccc2F)COCC(N)=N1 [Example 36] ... 2260
Cc1cnc(C(=O)Nc2cccc(C3(C)COCC(N)=N3)c2)cn1 (racemic) [Example 65] ... 2470

[A] CC(C)(F)C(=O)Nc1ccc(F)c([C@]2(C)COCC(N)=N2)c1 [Example 92, formate]
[B] C[C@@]1(c2cc(NC(=O)C(F)C(F)(F)F)ccc2F)COCC(N)=N1 (mixture of isomers) [Example 89, formate]
## Task Decide: A or B , by lowest recorded Kd. Identify your pick by its label.
## Result B
